Origin of measurements: PubChem BioAssay (NCI)

- Tested on: A498 renal
- protocol_details: NCI-60 one-dose screen, 48 h
- experimental_conditions: 10 µM unless noted
This is part of a sample that, as a whole, favours compounds with a hit. Of some 83,000 tested, about 20% had one in any assay. Active and inactive are the calls of the source. The calls were made as follows: active = growth percent below 10; inactive = the rest.
Classes used: Yes = active, No = inactive

molecule: COc1ccc(O)c2c(=O)c3c(OC)cc4c(c3oc12)[C@@H]1C=CO[C@@H]1O4
target: A498 renal
label: No
--
molecule: CC(=O)OC1CC2(O)C(CCC3(C)C(c4ccc(=O)oc4)CCC32O)C2(C)CCC(OC3OC(CO)C(O)C(O)C3O)C=C12 (centres undefined)
target: A498 renal
label: Yes
--
molecule: CO[C@@H]([CH2][Hg][O]C(=O)c1ccccc1)[C@@H]([CH2][Hg][O]C(=O)c1ccccc1)OC
target: A498 renal
label: No
--
molecule: O=C(CBr)OCCOC(=O)CBr
target: A498 renal
label: No
--
molecule: O=C(Cc1ccccc1)NC(O)C(Cl)(Cl)Cl (centres undefined)
target: A498 renal
label: No
--
molecule: C[Se]/C=C1/C(=O)N(c2c(Cl)cccc2Cl)c2ccccc21
target: A498 renal
label: No
--
molecule: N#CC(C#N)=C(C#N)C#N
target: A498 renal
label: No
--
molecule: Cc1nnc([S-])o1.[Au+].c1ccc([PH+](c2ccccc2)c2ccccc2)cc1
target: A498 renal
label: No
--
molecule: Cn1cc(-c2csc(-c3cn(CCCCN4CCOCC4)c4ccc(F)cc34)n2)c2cccnc21
target: A498 renal
label: No
--
molecule: CC[C@H](C)[C@H](NC(=O)CN(C)C)C(=O)N(C)[C@H](C[C@@H](OC(C)=O)c1nc(C(=O)NC23CC(C(=O)OC)(C2)C3)cs1)C(C)C
target: A498 renal
label: Yes
--
molecule: CN(C)c1ccc(C=C2C(=O)NC(=O)NC2=O)cc1
target: A498 renal
label: No
--
molecule: Cc1cc(N(CCCl)CCCl)ccc1C=Nc1ccc(-c2csc(-c3ccccc3)n2)cc1
target: A498 renal
label: No
--
molecule: COc1ccc(N(CC(=O)NCCC[Te]c2ccccc2)C(=O)c2ccccc2)cc1
target: A498 renal
label: No
--
molecule: COc1cc2c(cc1OC)-c1c3c(cc4c1[C@@H](C2)N(C)CC4)OCO3
target: A498 renal
label: No
--
molecule: CCCC(C)SP(=S)(SC(C)CCC)SC(C)CCC (centres undefined)
target: A498 renal
label: No
--
molecule: CNC(=O)Oc1ccc(Cl)cc1SSc1cc(Cl)ccc1OC(=O)NC
target: A498 renal
label: No
--
molecule: C[C@]12CC[C@H]3[C@@H](C[C@@H]4SC(Nc5ccccc5)=N[C@@]45C/C(=N/O)CC[C@]35C)[C@@H]1CCC2=O
target: A498 renal
label: No
--
molecule: C=CC[PH+](c1ccccc1)c1ccccc1.C=CC[PH+](c1ccccc1)c1ccccc1.[Pt+2].[S-]c1nc2ccccc2[nH]1.[S-]c1nc2ccccc2[nH]1
target: A498 renal
label: Yes
--
molecule: O=[N+]([O-])c1c(Cl)cc(Cl)c([N+](=O)[O-])c1Cl
target: A498 renal
label: No
--
molecule: COc1ccc(N)cc1OC
target: A498 renal
label: No
--
molecule: NC(=O)c1c(Br)c(Br)c(Br)c(Br)c1C(=O)O (tested in a mixture with another compound)
target: A498 renal
label: No
--
molecule: CO/N=C1\CC[C@]2(C)[C@H]3CC[C@]4(C)C(=O)CC[C@H]4[C@@H]3C[C@@H]3SC(N)=N[C@@]32C1
target: A498 renal
label: No
--
molecule: Cc1ccc(S(=O)(=O)n2cc([C@@]3(O)C[C@H](CSC#N)OC3=O)c3ccccc32)cc1
target: A498 renal
label: No
--
molecule: Oc1ccccc1C=NCCN=Cc1ccccc1O
target: A498 renal
label: No
--
molecule: COC(=O)C12C3C4C1C1C2C3C41NC(=O)c1csc([C@@H](C[C@H](C(C)C)N(C)C(=O)[C@@H](NC(=O)[C@H]2CCCCN2C)C2CC2)OC(C)=O)n1 (some centres undefined)
target: A498 renal
label: Yes
--
molecule: C=CC[PH+](c1ccccc1)c1ccccc1.C=CC[PH+](c1ccccc1)c1ccccc1.[Pt+2].[S-]c1ncccn1.[S-]c1ncccn1
target: A498 renal
label: No
--
molecule: O=[N+]([O-])c1cc(Br)c(O)c(Br)c1
target: A498 renal
label: No
--
molecule: C[C@]12CCc3sc(Nc4ccc(F)cc4)nc3C1=CC[C@@H]1[C@@H]2CC[C@]2(C)C(=O)CC[C@@H]12
target: A498 renal
label: No
--
molecule: O=C1c2ccccc2C(=O)N1N1CC1c1ccccc1 (centres undefined)
target: A498 renal
label: No
